Recorded measurements of log10 of IC50, one per entry
# Measured Target: PAR4 (Homo sapiens (Human), UniProt Q96RI0)
# Sequence (Q96RI0 18-385): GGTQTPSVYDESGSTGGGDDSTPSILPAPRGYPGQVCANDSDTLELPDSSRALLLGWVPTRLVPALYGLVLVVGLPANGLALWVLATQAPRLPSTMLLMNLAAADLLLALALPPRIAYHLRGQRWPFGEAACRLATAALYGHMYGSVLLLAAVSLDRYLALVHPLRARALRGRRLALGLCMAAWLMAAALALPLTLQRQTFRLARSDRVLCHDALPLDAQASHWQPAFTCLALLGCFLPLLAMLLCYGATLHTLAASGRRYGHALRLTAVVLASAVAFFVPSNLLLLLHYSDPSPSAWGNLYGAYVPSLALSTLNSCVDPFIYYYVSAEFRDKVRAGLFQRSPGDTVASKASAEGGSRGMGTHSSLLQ
# Measurement Notes: FLIPR assay in PAR4-expressing HEK293 cells (PAR4 antagonist activity, calcium mobilization)
# Format: cell-based
# Test Conditions: FLIPR assay as described in Example A
Scale: log10; quantity: IC50; unit before log: µM

Answered cases to consult:
| Chemical Structure | log10 of IC50 |
| --- | --- |
| COc1cc(OCc2cccc(OCc3cccc(NC(=O)c4ccccc4)c3)c2)c2cc(-c3cn4nc(OC)sc4n3)oc2c1 | -2.64 |
| COc1ccc(Br)c2cc(-c3cn4nc(Br)sc4n3)oc12 | -0.50 |
| CSc1nn2cc(-c3nc4ccc(F)cc4s3)nc2s1 | -1.51 |
| CSc1nn2cc(-c3cc4c(OCc5cccc(OCc6ccccc6)c5)cc(OS(=O)(=O)C(F)(F)F)cc4o3)nc2s1 | -1.29 |

Next, consider the following compound.
Give log10 of IC50 only, for COc1cc(Br)cc2cc(-c3cn4nc(Br)sc4n3)oc12 , using PAR4 (Homo sapiens (Human), UniProt Q96RI0) data.
-0.56

----------
Recorded measurements of pIC50, one per entry
# Measured Target: UniProt:Q96RI0
# Measurement Notes: Gamma thrombin induced platelet aggregation assay in PRP (PRP assay)
# Assay type: cell-based
pIC50 is a log-scale quantity: -log10 of the concentration expressed in molar.

| Compound | pIC50 |
| --- | --- |
| COc1cc(OCc2cccc(OCc3ccc(OC(F)(F)F)cc3)c2)c2cc(-c3cn4nc(OC)sc4n3)oc2c1 [Example 394] | 6.21 |
| COc1cc(OCc2cccc(OCc3cc(Cl)cc(Cl)c3)c2)c2cc(-c3cn4nc(OC)sc4n3)oc2c1 [Example 376] | 6.17 |
| COc1ccc2nc(-c3cn4nc(OC)sc4n3)oc2c1 [Example 164] | 5.04 |
| COc1cc(OCc2cc(F)cc(OCc3ccccc3)c2)c2cc(-c3cn4nc(OC)sc4n3)oc2c1 [Example 350] | 7.07 |
| CCOc1cc(OCc2cccc(OCc3ccccc3)c2)c2cc(-c3cn4nc(OC)sc4n3)oc2c1 [Example 426] | 6.25 |
| COc1cc(OCc2ccc(F)cc2)c2cc(-c3cn4nc(SC)sc4n3)oc2c1 [Example 301] | 5.53 |

Output measured pIC50 for this item: COc1cc(OCc2cccc(OCc3ccccc3)c2)c2cc(-c3cn4nc(C(C)(F)F)sc4n3)oc2c1 [Example 347]
6.24

Output measured pIC50 for this item: COc1nn2cc(-c3cc4c(OCc5cccc(OCc6cccc(C)c6)c5)c(Cc5ccccc5)c(OC)cc4o3)nc2s1 [Example 387]
5.62

Output measured pIC50 for this item: COc1cc(OCc2ccc(F)cc2)c2cc(-c3cn4nc(OC)sc4n3)oc2c1 [Example 303]
5.50

----------
Recorded measurements of IC50, one per entry
# Measured Target: PAR4 (Homo sapiens (Human))
# Measurement Notes: FLIPR assay in PAR4-expressing HEK293 cells (PAR4 antagonist activity, calcium mobilization)
# Type: cell-based
# Test Conditions: FLIPR assay as described in Example A
Just the number in nM, nothing appended.

| Compound | Measured Target | IC50 / nM |
| --- | --- | --- |
| CC(F)(F)c1nn2cc(-c3cc4ccccc4o3)nc2s1 | PAR4 (Homo sapiens (Human)) | 127 |

Output measured IC50 for this item: COc1ccc2cc(-c3cn4nc(C(C)F)sc4n3)oc2c1 (stereo not drawn)
4.83

Output measured IC50 for this item: COc1cc2oc(-c3cn4nc([C@H](C)F)sc4n3)cc2cc1Cl [270B]
3.37

Output measured IC50 for this item: COc1cc(OCc2cccc(OCc3ccc(I)cc3)c2)c2cc(-c3cn4nc(OC)sc4n3)oc2c1
3.03

Output measured IC50 for this item: COc1cc(OCc2cccc(OCc3cccc(OCc4ccccc4)c3)c2)c2cc(-c3cn4nc(OC)sc4n3)oc2c1
8.68

----------
# Measured Target: PAR4 (Homo sapiens (Human))
# Measurement Notes: FLIPR assay in PAR4-expressing HEK293 cells (PAR4 antagonist activity, calcium mobilization)
# Type: cell-based
# Test Conditions: FLIPR assay as described in Example A
Property: pIC50
pIC50 is a log-scale quantity: -log10 of the concentration expressed in molar.

Answered cases to consult:
| Chemical Structure | pIC50 |
| --- | --- |
| COc1cc(OCc2ccc(F)cc2)c2cc(-c3cn4nc(Br)sc4n3)oc2c1 | 6.71 |
| COc1cc(OCc2cccc(OCc3c(F)ccc(F)c3F)c2)c2cc(-c3cn4nc(OC)sc4n3)oc2c1 | 8.58 |

Output measured pIC50 for this item: CCOc1cccc2cc(-c3cn4nc(OC)sc4n3)oc12
6.83

Output measured pIC50 for this item: COc1cc(OCc2cccc(OCc3ccc(Cl)cc3Cl)c2)c2cc(-c3cn4nc(OC)sc4n3)oc2c1
8.13

Output measured pIC50 for this item: CCc1nn2cc(-c3nc4cc(C)cc(C)c4o3)nc2s1
6.25

Output measured pIC50 for this item: COc1cc(OCc2cccc(OCc3ccccc3F)c2)c2cc(-c3cn4nc(OC)sc4n3)oc2c1
8.72

Output measured pIC50 for this item: CCc1nn2cc(-c3cc4cccc(O)c4o3)nc2s1
6.54

Output measured pIC50 for this item: CCc1nn2cc(-c3nc4ccc(OCC(C)C)cc4o3)nc2s1
6.41

Output measured pIC50 for this item: COc1ccc2oc(-c3cn4nc(OC)sc4n3)nc2c1
7.56

----------
# Measured Target: PAR4 (Homo sapiens (Human), UniProt Q96RI0)
# Measurement Notes: FLIPR assay in PAR4-expressing HEK293 cells (PAR4 antagonist activity, calcium mobilization)
# Type: cell-based
# Test Conditions: FLIPR assay as described in Example A
We'd kindly ask you to apply these IC50 classes: low group: < 5 nM; middle group: ≥ 5 nM and < 500 nM; high group: ≥ 500 nM

Please review the following examples before continuing.
| Compound | Assigned Class |
| --- | --- |
| COc1ccc(COc2cccc(COc3cc(OC)cc4oc(-c5cn6nc(OC)sc6n5)cc34)c2)cc1 [Example 392] | low group |
| CSc1nn2cc(-c3nc4c(OCc5cccnc5)cccc4o3)nc2s1 [Example 154] | high group |
| COc1cc(OCc2cccc(OCc3ccccc3)c2)c2cc(-c3cn4nc([C@H](C)F)sc4n3)oc2c1 [Example 407] | low group |
| Brc1nn2cc(-c3cc4ccccc4o3)nc2s1 [Example 68] | middle group |
| COc1nn2cc(-c3cc4c(OCc5ccccc5)cc(OC)c(Br)c4o3)nc2s1 [Example 226] | high group |
| CSc1nn2cc(-c3nc4c(OC(C)C)cccc4o3)nc2s1 [Example 159] | middle group |

Now take the following compound into account.
Sort COc1cc(OCc2cccc(OCc3ccccc3C)c2)c2cc(-c3cn4nc(OC)sc4n3)oc2c1 [Example 363] into one of the categories.
low group

----------
# Measured Target: PAR4 (Homo sapiens (Human))
# Measurement Notes: FLIPR assay in PAR4-expressing HEK293 cells (PAR4 antagonist activity, calcium mobilization)
# Format: cell-based
# Test Conditions: FLIPR assay as described in Example A
Property: IC50 (nM)
Just the number in nM, nothing appended.

Answered cases to consult:
| Compound | Output Unit | IC50 |
| --- | --- | --- |
| COc1cc(OC)c2c(C)c(-c3cn4nc(OC)sc4n3)oc2c1 | nM | 3.91 |
| COc1nn2cc(-c3cc4cccc(OC)c4o3)nc2s1 [Example 9] | nM | 224 |
| COc1ccc2oc(-c3cn4nc(SC)sc4n3)nc2c1 | nM | 41 |
| COc1nn2cc(-c3cc4cccc(C(C)C)c4o3)nc2s1 | nM | 10.7 |
| CSc1nn2cc(-c3nc4cc(C)ccc4o3)nc2s1 | nM | 15.2 |
| COc1nn2cc(-c3cc4ccc(C)cc4o3)nc2s1 | nM | 4.7 |
| COc1cc(OCc2cccc(OCc3ccc(C)c(C)c3)c2)c2cc(-c3cn4nc(OC)sc4n3)oc2c1 | nM | 2.77 |
| CC(F)(F)c1nn2cc(-c3cc4cccc(OC(F)(F)F)c4o3)nc2s1 | nM | 671 |
| COc1cc(OCc2cccc(OCc3ccc(F)cc3C(F)(F)F)c2)c2cc(-c3cn4nc(OC)sc4n3)oc2c1 | nM | 3.13 |
| COc1nn2cc(-c3nc4cc(C)ccc4o3)nc2s1 | nM | 27.9 |

Output measured IC50 for this item: CSc1nn2cc(-c3nc4c(OC[C@H]5CCCN5C(=O)[C@H](NC(=O)c5ccccc5)c5ccccc5)cccc4o3)nc2s1
537

Output measured IC50 for this item: COc1cc(OCc2cccc(OCc3ccccn3)c2)c2cc(-c3cn4nc(OC)sc4n3)oc2c1
9.2

Output measured IC50 for this item: CSc1nn2cc(-c3cc4c(Cl)cc(Cl)cc4o3)nc2s1
8.19

Output measured IC50 for this item: CSc1nn2cc(-c3nc4c(OCc5ccc(Cl)cc5)cccc4o3)nc2s1
1650

Output measured IC50 for this item: CSc1nn2cc(-c3nc4c(OCc5cc(F)cc(F)c5)cccc4o3)nc2s1
48.1

These measurements were taken from patent US9862730B2.
